- assaySummary: Cytotoxicity upon MRC-5 cells (diploid embryonic lung cell line) at 6.3 uM concentration
- Type: cell-based, MRC5
- conditionDescription: human
Provide the reported cytotoxicity at 6.3 µM of each item.
Please respond with the number in % and leave the unit unwritten.

Prompt: Bench note: what cytotoxicity at 6.3 µM did CCN(CC)Cc1cc(Nc2ccnc3cc(Cl)ccc23)ccc1O.Cl show?
Completion: 0

Prompt: Let us now turn to CCN(CC)CCCC(C)Nc1ccnc2cc(Cl)ccc12 (configuration not stated)
Completion: 0

====

- System: Plasmodium falciparum
- assaySummary: Inhibitory activity against chloroquine-resistant Plasmodium falciparum K1
- Type: functional, organism-based
measuredMetric: log10 IC50 (log10 of the value in nM)
Plainly stated, the numbers are log10 of IC50 given in nM.

Prompt: // lookup log10 IC50 | system=Plasmodium falciparum | key= O=C(CN1CCCCC1)Nc1cc(CO)cc(Nc2ccnc3cc(Cl)ccc23)c1
Completion: 2.18

Prompt: Let us now turn to O=C(CN1CCCCC1)Nc1cc(CN2CCCCC2)cc(Nc2ccnc3cc(Cl)ccc23)c1
Completion: 0.91

Prompt: Let us now turn to CCN(CC)Cc1cc(Nc2ccnc3cc(Cl)ccc23)ccc1O.Cl
Completion: 1.16

Prompt: Let us now turn to O=C(CN1CCCCC1)Nc1cc(CN2CCOCC2)cc(Nc2ccnc3cc(Cl)ccc23)c1
Completion: 1.09

Prompt: Let us now turn to O=C(CN1CCCCC1)Nc1cc(COC(=O)CCCCN2CCOCC2)cc(Nc2ccnc3cc(Cl)ccc23)c1
Completion: 1.35

Prompt: Let us now turn to O=C(CN1CCCCC1)Nc1cc(COC(=O)CCCCN2CCCCC2)cc(Nc2ccnc3cc(Cl)ccc23)c1
Completion: 1.28

====

- assaySummary: Cytotoxicity upon MRC-5 cells (diploid embryonic lung cell line) at 6.3 uM
- Type: cell-based, MRC5
- conditionDescription: human
Provide the reported cytotoxicity at 6.3 µM of each item.
Could you write the number and then its unit?

Prompt: Bench note: what cytotoxicity at 6.3 µM did CN1CCN(CCCCC(=O)OCc2cc(NC(=O)CN3CCCCC3)cc(Nc3ccnc4cc(Cl)ccc34)c2)CC1 show?
Completion: 0%

Prompt: Let us now turn to O=C(CN1CCCCC1)Nc1cc(COC(=O)CCCCN2CCCCC2)cc(Nc2ccnc3cc(Cl)ccc23)c1
Completion: 90%

Prompt: Let us now turn to CC1CCN(CC(=O)Nc2cc(CO)cc(Nc3ccnc4cc(Cl)ccc34)c2)CC1
Completion: 0%

Prompt: Let us now turn to O=C(CNCc1ccccc1)Nc1cc(CO)cc(Nc2ccnc3cc(Cl)ccc23)c1
Completion: 0%

Prompt: Let us now turn to O=C(CN1CCC(O)CC1)Nc1cc(CO)cc(Nc2ccnc3cc(Cl)ccc23)c1
Completion: 0%

Prompt: Let us now turn to O=C(CN1CCSC1)Nc1cc(CO)cc(Nc2ccnc3cc(Cl)ccc23)c1
Completion: 0%

Prompt: Let us now turn to CCN(CC)CCCCC(=O)OCc1cc(NC(=O)CN2CCCCC2)cc(Nc2ccnc3cc(Cl)ccc23)c1
Completion: 13%

Prompt: Let us now turn to CN1CCN(CC(=O)Nc2cc(CO)cc(Nc3ccnc4cc(Cl)ccc34)c2)CC1
Completion: 0%

Prompt: Let us now turn to CCN(CC)CC(=O)Nc1cc(CO)cc(Nc2ccnc3cc(Cl)ccc23)c1
Completion: 0%

Prompt: Let us now turn to O=C(CN1CCCCC1)Nc1cc(COC(=O)CCCCN2CCCC2)cc(Nc2ccnc3cc(Cl)ccc23)c1
Completion: 83%

Prompt: Let us now turn to CC1CCN(CCCCCCCCCCCC(=O)Nc2cc(CO)cc(Nc3ccnc4cc(Cl)ccc34)c2)CC1
Completion: 0%

Prompt: Let us now turn to O=C(CN1CCOCC1)Nc1cc(CO)cc(Nc2ccnc3cc(Cl)ccc23)c1
Completion: 0%

Prompt: Let us now turn to CC(C)(C)NCC(=O)Nc1cc(CO)cc(Nc2ccnc3cc(Cl)ccc23)c1
Completion: 0%

Prompt: Let us now turn to O=CNc1cc(CO)cc(Nc2ccnc3cc(Cl)ccc23)c1
Completion: 0%

Prompt: Let us now turn to O=C(CN1CCCCC1)Nc1cc(COC(=O)c2ccccc2)cc(Nc2ccnc3cc(Cl)ccc23)c1
Completion: 38%

Prompt: Let us now turn to O=C(CN1CCCCC1)Nc1cc(COC(=O)CN2CCCCC2)cc(Nc2ccnc3cc(Cl)ccc23)c1
Completion: 0%

====

- Test system: Plasmodium falciparum
- assaySummary: Inhibitory activity against chloroquine-resistant Plasmodium falciparum FcB1R
- Assay type: functional, organism-based
- conditionDescription: Plasmodium falciparum
measuredMetric: pIC50
Reminder that pIC50 means the negative base-10 logarithm of the concentration expressed in mol/L.

Prompt: // lookup pIC50 | system=Plasmodium falciparum | key= CCN(CC)c1ccc(CN2CCN(Cc3cc(NC(=O)CN4CCCCC4)cc(Nc4ccnc5cc(Cl)ccc45)c3)CC2)cc1
Completion: 7.92

Prompt: Let us now turn to O=C(CN1CCCCC1)Nc1cc(COC(=O)c2ccccc2)cc(Nc2ccnc3cc(Cl)ccc23)c1
Completion: 7.12

Prompt: Let us now turn to CCN(CC)CC(=O)Nc1cc(CO)cc(Nc2ccnc3cc(Cl)ccc23)c1
Completion: 7.38

Prompt: Let us now turn to CC1CCN(CCCCC(=O)Nc2cc(CO)cc(Nc3ccnc4cc(Cl)ccc34)c2)CC1
Completion: 6.33

Prompt: Let us now turn to CN1CCN(CCCCC(=O)OCc2cc(NC(=O)CN3CCCCC3)cc(Nc3ccnc4cc(Cl)ccc34)c2)CC1
Completion: 7.19

Prompt: Let us now turn to O=C(CN1CCCCC1)Nc1cc(COC(=O)CN2CCCCC2)cc(Nc2ccnc3cc(Cl)ccc23)c1
Completion: 7.27

Prompt: Let us now turn to O=C(CN1CCCCC1)Nc1cc(CNCc2ccccc2)cc(Nc2ccnc3cc(Cl)ccc23)c1
Completion: 8.07

Prompt: Let us now turn to CN(C)CCN(C)Cc1cc(NC(=O)CN2CCCCC2)cc(Nc2ccnc3cc(Cl)ccc23)c1
Completion: 8.30

====

Provide the reported cytotoxicity at 8 µM of each item.
- assaySummary: Cytotoxicity upon MRC-5 cells (diploid embryonic lung cell line) at 8 uM
- Assay type: cell-based, MRC5
- conditionDescription: human
Please respond with the number in % and leave the unit unwritten.

Prompt: Bench note: what cytotoxicity at 8 µM did O=C(CN1CCCCC1)Nc1cc(CNCc2ccc(C(F)(F)F)cc2)cc(Nc2ccnc3cc(Cl)ccc23)c1 show?
Completion: 100

Prompt: Let us now turn to CC(C)(C)NCc1cc(NC(=O)CN2CCCCC2)cc(Nc2ccnc3cc(Cl)ccc23)c1
Completion: 100

Prompt: Let us now turn to O=C(CN1CCCCC1)Nc1cc(CN2CCN(Cc3ccc(Cl)cc3)CC2)cc(Nc2ccnc3cc(Cl)ccc23)c1
Completion: 100

Prompt: Let us now turn to O=C(CN1CCCCC1)Nc1cc(CNCc2ccccc2)cc(Nc2ccnc3cc(Cl)ccc23)c1
Completion: 100

Prompt: Let us now turn to O=C(CN1CCCCC1)Nc1cc(CNc2ccccc2)cc(Nc2ccnc3cc(Cl)ccc23)c1
Completion: 100

====

- assaySummary: Cytotoxicity upon MRC-5 cells (diploid embryonic lung cell line) at 32 uM
- Type: cell-based, MRC5
- conditionDescription: human
measuredMetric: cytotoxicity at 32 µM (%)
Please respond with the number in % and leave the unit unwritten.

Prompt: Bench note: what cytotoxicity at 32 µM did O=C(CN1CCCCC1)Nc1cc(CN2CCN(C(c3ccccc3)c3ccccc3)CC2)cc(Nc2ccnc3cc(Cl)ccc23)c1 show?
Completion: 98

Prompt: Let us now turn to CCN(CC)c1ccc(CN2CCN(Cc3cc(NC(=O)CN4CCCCC4)cc(Nc4ccnc5cc(Cl)ccc45)c3)CC2)cc1
Completion: 100

Prompt: Let us now turn to N#Cc1ccc(CN2CCN(Cc3cc(NC(=O)CN4CCCCC4)cc(Nc4ccnc5cc(Cl)ccc45)c3)CC2)cc1
Completion: 100

Prompt: Let us now turn to COc1ccc(CN2CCN(Cc3cc(NC(=O)CN4CCCCC4)cc(Nc4ccnc5cc(Cl)ccc45)c3)CC2)cc1
Completion: 100

Prompt: Let us now turn to O=C(CN1CCCCC1)Nc1cc(CN2CCN(Cc3ccc([N+](=O)[O-])cc3)CC2)cc(Nc2ccnc3cc(Cl)ccc23)c1
Completion: 100

Prompt: Let us now turn to O=C(CN1CCCCC1)Nc1cc(CO)cc(Nc2ccnc3cc(Cl)ccc23)c1
Completion: 99

Prompt: Let us now turn to O=C(CN1CCCCC1)Nc1cc(CNC(c2ccccc2)c2ccccc2)cc(Nc2ccnc3cc(Cl)ccc23)c1
Completion: 100

Prompt: Let us now turn to O=C(CN1CCCCC1)Nc1cc(CN2CCOCC2)cc(Nc2ccnc3cc(Cl)ccc23)c1
Completion: 100
